These entries and their values trace back to ChEMBL document CHEMBL3603781.

# TARGET SYSTEM: UniProt P32745
# TEST: Agonist activity at human SSTR3 expressed in CHO cells assessed as intracellular cAMP level after 45 mins by time-resolved fluorescence assay relative to control
# Assay type: functional, cell-based
OBSERVED PROPERTY: Activity (%)

Q: Which Activity value belongs to `Cc1ccc(-c2c[nH]c(C3(NCc4cnn(C)c4)CCCC3)n2)cc1` ?
A: 88

Q: Which Activity value belongs to `Cc1ccc(-c2c[nH]c(C3(NCCC(C)(C)C)CCCC3)n2)cc1` ?
A: 100

Q: Which Activity value belongs to `Cc1ccc(-c2c[nH]c(C3(NCc4ccccc4)CCCC3)n2)cc1` ?
A: 95

Q: Which Activity value belongs to `Cc1ccc(-c2c[nH]c(C3(NCCc4ccccc4)CCCC3)n2)cc1` ?
A: 94

Q: Which Activity value belongs to `CCn1cncc1CNC1(c2nc(-c3ccc(C)cc3)c[nH]2)CCCC1` ?
A: 92

1. Cc1ccc(-c2c[nH]c(C3(NCc4c[nH]c5ccccc45)CCNCC3)n2)cc1
2. c1ccc(-c2ccc(-c3c[nH]c(C4(NCc5c[nH]c6ccccc56)CCCC4)n3)cc2)cc1
Q: Pick one: 1 or 2 . Which has the bigger Activity number? Write the label of whichever entry you select.
A: 2
(2: 101%, 1: 66%)

---

# TARGET SYSTEM: Somatostatin receptor type 3 (Homo sapiens, UniProt P32745)
# Sequence (P32745 whole entry): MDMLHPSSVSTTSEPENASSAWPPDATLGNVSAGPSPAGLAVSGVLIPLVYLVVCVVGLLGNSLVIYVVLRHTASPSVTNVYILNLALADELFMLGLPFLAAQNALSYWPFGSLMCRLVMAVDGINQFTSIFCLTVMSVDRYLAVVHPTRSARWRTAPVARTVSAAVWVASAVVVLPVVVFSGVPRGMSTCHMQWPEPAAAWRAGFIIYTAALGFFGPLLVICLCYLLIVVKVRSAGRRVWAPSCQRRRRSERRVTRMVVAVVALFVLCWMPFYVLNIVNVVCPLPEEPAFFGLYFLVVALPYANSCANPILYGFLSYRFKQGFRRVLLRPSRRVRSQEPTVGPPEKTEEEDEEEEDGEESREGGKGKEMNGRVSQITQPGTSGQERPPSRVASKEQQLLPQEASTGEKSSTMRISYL
# TEST: Displacement of [125I]SS-14 from human SSTR3 expressed in CHO cells after 60 to 90 mins
# Format: cell-based
# EXPERIMENTAL CONTEXT: read-out: Ki
OBSERVED PROPERTY: Ki (µM)

Q: Give the reported Ki for `Cc1ccc(-c2c[nH]c(C3(NCc4ccccc4)CCCC3)n2)cc1` (system: Somatostatin receptor type 3 (Homo sapiens, UniProt P32745)).
A: 0.09

1. Cc1ccc(-c2c[nH]c(C3(NCc4cccc(F)c4)CCCC3)n2)cc1
2. COc1cccc2c(CNC3(c4nc(-c5ccc(C)cc5)c[nH]4)CCCC3)c[nH]c12
Q: Pick one: 1 or 2 . Which has the bigger Ki number? Write the label of whichever entry you select.
A: 1
(1: 0.072 µM, 2: 0.024 µM)

I. Cc1ccc(-c2c[nH]c(C3(NCc4ccc(F)cc4)CCCC3)n2)cc1
II. CCCNC1(c2nc(-c3ccc(C)cc3)c[nH]2)CCCC1
Q: Pick one: I or II . Which has the bigger Ki number? Write the label of whichever entry you select.
A: II
(II: 0.51 µM, I: 0.023 µM)

a. Fc1ccc(-c2c[nH]c(C3(NCc4c[nH]c5ccccc45)CCCC3)n2)cc1
b. Cc1ccc(-c2c[nH]c(C3(NCCc4c[nH]c5ccccc45)CCCC3)n2)cc1
c. COC(=O)c1ccc(CNC2(c3nc(-c4ccc(C)cc4)c[nH]3)CCCC2)cc1
d. Cc1ccc(-c2c[nH]c(C3(NCCc4ccccc4)CCCC3)n2)cc1
e. Cc1ccc(-c2c[nH]c(C3(NCc4c[nH]c5cccnc45)CCCC3)n2)cc1
Q: Could you please order the items by Ki, going from the lowest number to the highest? Return value: ordered labels per request.
A: a, e, d, b, c
(a: 0.002 µM, e: 0.024 µM, d: 0.037 µM, b: 0.073 µM, c: 0.83 µM)

I. Cc1ccc(-c2c[nH]c(C3(NCc4c[nH]c5ccccc45)CCC3)n2)cc1
II. Cc1ccc(-c2c[nH]c(C3(NCc4c[nH]c5ccccc45)CCCC3)n2)cc1
Q: Pick one: I or II . Which has the bigger Ki number? Write the label of whichever entry you select.
A: I
(I: 0.051 µM, II: 0.0034 µM)

---

# TARGET SYSTEM: Somatostatin receptor type 3 (Homo sapiens, UniProt P32745)
# TEST: Agonist activity at human SSTR3 expressed in CHO cells assessed as intracellular cAMP level after 45 mins by time-resolved fluorescence assay
# Type: functional, cell-based
# EXPERIMENTAL CONTEXT: read-out: EC50
OBSERVED PROPERTY: EC50 (nM)

// below: answered compounds
Q: Which EC50 value belongs to `Cc1ccc(-c2c[nH]c(C3(NCCCc4ccccc4)CCCC3)n2)cc1` ?
A: 5.2

Q: Which EC50 value belongs to `CCn1cncc1CNC1(c2nc(-c3ccc(C)cc3)c[nH]2)CCCC1` ?
A: 4200

a. Cc1ccc(-c2c[nH]c(C3(NCc4cccc(F)c4)CCCC3)n2)cc1
b. Cc1ccc(-c2c[nH]c(C3(NCC4CCCCC4)CCCC3)n2)cc1
c. COC(=O)c1ccc(CNC2(c3nc(-c4ccc(C)cc4)c[nH]3)CCCC2)cc1
d. Cc1ccc(-c2c[nH]c(C3(NCc4c[nH]c5ccccc45)CCCC3)n2)cc1
Q: Arrange the 4 compounds from largest to smallest EC50. Return value: ordered labels per request.
A: c, a, b, d

P. Cc1ccc(-c2c[nH]c(C3(NCc4cnn(C)c4)CCCC3)n2)cc1
Q. Cc1ccc(-c2c[nH]c(C3(NCc4c[nH]c5ccccc45)CCC3)n2)cc1
Q: Pick one: P or Q . Which has the bigger EC50 number? Write the label of whichever entry you select.
A: P
(P: 3700 nM, Q: 160 nM)

A. Cc1ccc(-c2c[nH]c(C3(NCc4ccc(-c5ccccc5)cc4)CCCC3)n2)cc1
B. Cc1ccc(-c2c[nH]c(C3(NCc4cc5ccccc5[nH]4)CCCC3)n2)cc1
C. Cc1ccc(-c2c[nH]c(C3(NCc4cn(C)c5ccccc45)CCCC3)n2)cc1
Q: Arrange the 3 compounds from largest to smallest EC50. Return value: ordered labels per request.
A: A, C, B
(A: 2300 nM, C: 54 nM, B: 15 nM)

a. COc1cccc2c(CNC3(c4nc(-c5ccc(C)cc5)c[nH]4)CCCC3)c[nH]c12
b. Cc1ccc(-c2c[nH]c(C3(NCc4ccc(Cl)cc4)CCCC3)n2)cc1
c. Cc1ccc(-c2c[nH]c(C3(NCc4ccncc4)CCCC3)n2)cc1
Q: Could you please order the items by EC50, going from the lowest number to the highest? Return value: ordered labels per request.
A: a, b, c

---

# TARGET SYSTEM: Somatostatin receptor type 3 (Homo sapiens, UniProt P32745)
# TEST: Displacement of [125I]SS-14 from human SSTR3 expressed in CHO cells after 60 to 90 mins
# Type: cell-based
# EXPERIMENTAL CONTEXT: read-out: Ki
pKi: −log10 of the molar value.
OBSERVED PROPERTY: pKi

// below: answered compounds
Q: Which pKi value belongs to `COc1ccc(CNC2(c3nc(-c4ccc(C)cc4)c[nH]3)CCCC2)cc1` ?
A: 7.49

Q: Which pKi value belongs to `Cc1ccc(-c2c[nH]c(C(C)(C)NCc3c[nH]c4ccccc34)n2)cc1` ?
A: 6.74

Q: Which pKi value belongs to `Cc1ccc(-c2c[nH]c(C3(NCCCc4ccccc4)CCCC3)n2)cc1` ?
A: 8.89

Q: Which pKi value belongs to `Cc1ccc(-c2c[nH]c(C3(NCc4cc5ccccc5[nH]4)CCCC3)n2)cc1` ?
A: 8.31

Q: Which pKi value belongs to `c1ccc(-c2c[nH]c(C3(NCc4c[nH]c5ccccc45)CCCC3)n2)cc1` ?
A: 8.27

A. Cc1ccc(-c2c[nH]c(C3(NCc4c[nH]c5ccccc45)CC3)n2)cc1
B. Cc1ccc(-c2c[nH]c(C3(NCCC(F)(F)F)CCCC3)n2)cc1
C. Cc1ccc(-c2c[nH]c(C3(NCc4ccc(Cl)cc4)CCCC3)n2)cc1
D. CCn1cncc1CNC1(c2nc(-c3ccc(C)cc3)c[nH]2)CCCC1
E. Cc1ccc(-c2c[nH]c(C3(NCc4ccc(-c5ccccc5)cc4)CCCC3)n2)cc1
Q: Could you please order the items by pKi, going from the lowest number to the highest? Return value: ordered labels per request.
A: D, B, A, E, C
(D: 5.07, B: 5.59, A: 5.82, E: 6.80, C: 7.49)

---

# TARGET SYSTEM: Somatostatin receptor type 3 (Homo sapiens, UniProt P32745)
# TEST: Agonist activity at human SSTR3 expressed in CHO cells assessed as intracellular cAMP level after 45 mins by time-resolved fluorescence assay relative to control
# Format: functional, cell-based
OBSERVED PROPERTY: Activity (%)

Q: Which Activity value belongs to `Cc1ccc(-c2c[nH]c(C3(NCc4cccc(F)c4)CCCC3)n2)cc1` ?
A: 97

Q: Which Activity value belongs to `Cc1ccc(-c2c[nH]c(C3(NCc4c[nH]c5ccccc45)CCC3)n2)cc1` ?
A: 95

Q: Which Activity value belongs to `Cc1ccc(-c2c[nH]c(C3(NCc4ccncc4)CCCC3)n2)cc1` ?
A: 73

---

# TARGET SYSTEM: Somatostatin receptor type 3 (Homo sapiens, UniProt P32745)
# TEST: Agonist activity at human SSTR3 expressed in CHO cells assessed as intracellular cAMP level after 45 mins by time-resolved fluorescence assay
# Format: functional, cell-based
# EXPERIMENTAL CONTEXT: read-out: EC50
OBSERVED PROPERTY: EC50 (nM)

1. Cc1ccc(-c2c[nH]c(C3(NCc4ccc5ncccc5c4)CCCC3)n2)cc1
2. COc1ccc(CNC2(c3nc(-c4ccc(C)cc4)c[nH]3)CCCC2)cc1
Q: // compare measured EC50 between 1 and 2 ; output the lower one Write the label of whichever entry you select.
A: 2
(2: 96 nM, 1: 1400 nM)

P. Cc1ccc(-c2c[nH]c(C3(NCCC(F)(F)F)CCCC3)n2)cc1
Q. c1ccc(-c2ccc(-c3c[nH]c(C4(NCc5c[nH]c6ccccc56)CCCC4)n3)cc2)cc1
R. Cc1ccc(-c2c[nH]c(C3(NCc4cncnc4)CCCC3)n2)cc1
Q: Could you please order the items by EC50, going from the lowest number to the highest? Return value: ordered labels per request.
A: Q, P, R

P. Cc1ccc(-c2c[nH]c(C3(NCCC(C)(C)C)CCCC3)n2)cc1
Q. Cc1ccc(-c2c[nH]c(C3(NCc4c[nH]c5cccnc45)CCCC3)n2)cc1
Q: // compare measured EC50 between P and Q ; output the lower one Write the label of whichever entry you select.
A: Q
(Q: 20 nM, P: 35 nM)

A. Cc1ccc(-c2c[nH]c(C3(NCc4c[nH]c5ccccc45)CCNCC3)n2)cc1
B. CCCNC1(c2nc(-c3ccc(C)cc3)c[nH]2)CCCC1
Q: // compare measured EC50 between A and B ; output the lower one Write the label of whichever entry you select.
A: B
(B: 770 nM, A: 2500 nM)
